target: UniProtKB P35462; assay: radioligand binding assay, dopamine D3 receptor, [3H]spiperone; conditions: CHO cell membranes, mean of two to five experiments in triplicate, read-out: Ki D3
Sequence (P35462 whole entry): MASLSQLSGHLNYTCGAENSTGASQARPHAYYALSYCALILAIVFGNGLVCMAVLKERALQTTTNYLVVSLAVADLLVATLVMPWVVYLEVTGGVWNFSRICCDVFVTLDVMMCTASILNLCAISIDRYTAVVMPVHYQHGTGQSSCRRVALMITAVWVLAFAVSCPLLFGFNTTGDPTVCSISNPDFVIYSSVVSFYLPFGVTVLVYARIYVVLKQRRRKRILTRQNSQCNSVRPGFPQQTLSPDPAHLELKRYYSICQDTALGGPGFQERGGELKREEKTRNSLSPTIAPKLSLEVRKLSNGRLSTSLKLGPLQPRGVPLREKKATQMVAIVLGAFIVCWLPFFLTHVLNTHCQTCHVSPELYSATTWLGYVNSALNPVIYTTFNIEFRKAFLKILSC
pKi: −log10 of the molar value.
Recorded pKi for the following molecules

Molecule | Value Measured
Cc1ccc(CNCC2(F)CCN(C(=O)c3ccc(-c4cccs4)s3)CC2)nc1 [Example E15] | 5.30 to 6.30

*Q* Quick check: pKi on UniProtKB P35462, item Cc1ccc(CNCC2(F)CCN(C(=O)c3cc4ccccn4n3)CC2)nc1 [Example E42] ?
*A* < 5.30

*Q* Recorded pKi for Cc1ccc(CNCC2(F)CCN(C(=O)c3ccc(-c4csc(C)n4)s3)CC2)nc1 [Example E16] with UniProtKB P35462, please?
*A* 5.30 to 6.30

*Q* State its pKi on UniProtKB P35462: Cc1ccc(CNCC2(F)CCN(C(=O)c3sccc3C)CC2)nc1 [Example E9]
*A* < 5.30

*Q* What reported pKi corresponds to Cc1ccc(CNCC2(F)CCN(C(=O)c3sccc3Br)CC2)nc1 [Example E5] on UniProtKB P35462?
*A* < 5.30

*Q* Record Cc1ccc(CNCC2(F)CCN(C(=O)c3cnn4ccccc34)CC2)nc1 [Example E43] : what is its pKi with UniProtKB P35462?
*A* < 5.30

*Q* Short answer please: pKi, UniProtKB P35462, entry Cc1ccc(CNCC2(F)CCN(C(=O)c3scc4c3CCCC4)CC2)nc1 [Example E29]
*A* < 5.30

*Q* Any idea what pKi came out for Cc1ccc(CNCC2(F)CCN(C(=O)c3csc4ccccc34)CC2)nc1 [Example E25] on UniProtKB P35462?
*A* < 5.30

*Q* Notebook entry, UniProtKB P35462 assay: pKi of Cc1ccc(CNCC2(F)CCN(C(=O)c3ccc(Br)s3)CC2)nc1 [Example E7] = ?
*A* < 5.30
